# subject-of-test: recombinant human nicotinic acid receptor (NAR) (Homo sapiens)
# experimental-details: Nicotinic Acid Receptor Assay: inhibition of forskolin-stimulated cAMP accumulation in CHO cells (MesoScale Discovery cAMP kit)
# Format: cell-based
# study-conditions: CHO cells expressing recombinant human NAR; forskolin-stimulated cAMP; read-out: NA EC50 camp
measured-attribute: EC50

1. CCCCc1cc(=O)oc2c1c(=O)[nH]c(=O)n2CC1CC1 > 1000 nM
2. CCc1cc(=O)oc2nc(OCc3cnoc3C)[nH]c(=O)c12 > 1000 nM
3. O=c1[nH]c(=O)c2c(CCCC3CCCC3)cc(=O)oc2[nH]1 0.001 to 100 nM
4. CC(C)(C)CCCc1cc(=O)oc2[nH]c(=O)[nH]c(=O)c12 0.001 to 100 nM
5. CCn1c(=O)[nH]c2oc(=O)cc(CCC3CC3)c2c1=O 100 to 1000 nM

# input compound: `Cc1cc(=O)oc2nc(OCc3csc4ccccc34)[nH]c(=O)c12` ; wanted: its EC50
> 1000 nM

Name the recorded EC50 for `CCc1cc(=O)oc2nc(OCc3cccc(-c4ccccc4Cl)c3)[nH]c(=O)c12` .
100 to 1000 nM

Field request: EC50 | item: `CCc1cc(=O)oc2nc(OCc3cc(C)nn3C(C)(C)C)[nH]c(=O)c12`
100 to 1000 nM

Which measured EC50 value corresponds to `Cn1c(=O)[nH]c(=O)c2c(CCC3CC3)cc(=O)oc21` ?
100 to 1000 nM

====

# subject-of-test: recombinant human nicotinic acid receptor (NAR) (Homo sapiens, UniProt Q8TDS4)
# Sequence (Q8TDS4 whole entry): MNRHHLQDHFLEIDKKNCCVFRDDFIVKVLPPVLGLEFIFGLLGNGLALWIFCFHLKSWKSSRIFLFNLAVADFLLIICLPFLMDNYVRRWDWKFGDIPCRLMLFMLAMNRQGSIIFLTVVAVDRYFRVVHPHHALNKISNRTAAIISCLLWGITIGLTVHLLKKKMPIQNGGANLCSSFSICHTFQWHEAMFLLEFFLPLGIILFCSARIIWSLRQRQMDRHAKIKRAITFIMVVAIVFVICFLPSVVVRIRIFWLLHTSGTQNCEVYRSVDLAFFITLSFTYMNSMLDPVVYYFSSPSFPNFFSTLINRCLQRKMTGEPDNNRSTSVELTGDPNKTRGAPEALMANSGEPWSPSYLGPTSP
# experimental-details: Nicotinic Acid Receptor Assay: inhibition of forskolin-stimulated cAMP accumulation in CHO cells (MesoScale Discovery cAMP kit)
# Assay type: cell-based
# study-conditions: inhibition of forskolin-stimulated cAMP accumulation, CHO cells expressing recombinant human NAR; read-out: NA EC50 camp
measured-attribute: EC50 (nM)

1) COn1c(=O)[nH]c2oc(=O)cc(CCCC3CC3)c2c1=O 28
2) CCCC#CCOc1nc2oc(=O)cc(CCC3CC3)c2c(=O)[nH]1 226
3) O=c1cc(CCC2CC2)c2c(=O)[nH]c(CF)nc2o1 228

P. CCc1cc(=O)oc2nc(OCc3ccccc3F)[nH]c(=O)c12
Q. O=c1[nH]c(=O)c2c(CC3CCCC3)cc(=O)oc2[nH]1
R. O=c1[nH]c(=O)c2c(CC3CCCCC3)cc(=O)oc2[nH]1
S. CCCCc1cc(=O)oc2[nH]c(=O)n(OCC)c(=O)c12
T. CCCc1cc(=O)oc2[nH]c(=O)nc(OCF)c12
Rank the items in ascending order with respect to EC50. Labels, requested order.
Q, R, P, T, S

====

Each entry below lists one item and its recorded EC50 value.
# subject-of-test: recombinant human nicotinic acid receptor (NAR) (Homo sapiens, UniProt Q8TDS4)
# experimental-details: Nicotinic Acid Receptor Assay: inhibition of forskolin-stimulated cAMP accumulation in CHO cells (MesoScale Discovery cAMP kit)
# Assay type: cell-based
# study-conditions: CHO cells expressing recombinant human NAR; forskolin-stimulated cAMP; read-out: NA EC50 camp

Please review the following examples before continuing.
compound	subject-of-test	EC50
CCc1cc(=O)oc2nc(OCc3cc(Br)no3)[nH]c(=O)c12 [Compound 649]	recombinant human nicotinic acid receptor (NAR) (Homo sapiens, UniProt Q8TDS4)	100 to 1000 nM
CCCCc1cc(=O)oc2nc(OCC#CCOC)[nH]c(=O)c12 [Compound 670]	recombinant human nicotinic acid receptor (NAR) (Homo sapiens, UniProt Q8TDS4)	0.001 to 100 nM

I am curious: what EC50 value has been reported for O=c1cc(Cc2ccccc2)c2c(=O)[nH]c(OCc3ccccc3F)nc2o1 [Compound 616] ?
100 to 1000 nM

Fill blank: measured EC50 of the compound O=c1cc(CCCCC2CC2)c2c(=O)[nH]c(=O)n(C3CCC3)c2o1 [Compound 210] is ____.
100 to 1000 nM

Would you kindly share the measured EC50 for CCc1cc(=O)oc2nc(OCc3cc(C)c(OC)c(C)n3)[nH]c(=O)c12 [Compound 511] ?
> 1000 nM

What measured EC50 goes with COc1ccc(-c2cc(CCCc3cc(=O)oc4[nH]c(=O)[nH]c(=O)c34)on2)cc1 [Compound 261] ?
100 to 1000 nM

// EC50 lookup, key: CCCCc1cc(=O)oc2nc(OCc3ccccn3)[nH]c(=O)c12 [Compound 682]
> 1000 nM

Any idea what EC50 was measured for CCCCc1c(-c2ccc(C#N)cc2)c(=O)oc2[nH]c(=O)[nH]c(=O)c12 [Compound 709] ?
> 1000 nM
